# EXPERIMENTAL DETAILS: qHTS Assay for Lipid Storage Modulators in Drosophila S3 Cells
# CONDITION LABEL: BODIPY lipid droplet fluorescence, 18-24 h, cells fed with added oleic acid; series mostly up to 46.1 µM
Hit rate of the full screen: of about 320,000 compounds, about 2,100 (0.66%) were called active. About 53% were inconclusive and are not listed. Calls come from the whole dose curve; as a rule, active = well fitted inhibition curve with a large enough effect in the signal ratio, with a control signal flat (not every such curve was filed as active); inconclusive = small, poorly fitted or top-dose-only effect, or effect the other way, or a change in a side signal; inactive = flat fitted curve, though single readings scatter; the % refers to the signal ratio. The list comes from a sample in which actives are over-represented; it also holds close analogues and randomly drawn compounds.
Outcome codes: T (active), F (inactive)

[
  {
    "SMILES REPR": "CCOc1ncccc1C(=O)Nc1cccc(C(=O)Nc2cccc(S(=O)(=O)CCO)c2)c1",
    "CLASSIFICATION": "F"
  },
  {
    "SMILES REPR": "COc1ccc(S(=O)(=O)Nc2c(C)n(C)n(-c3ccccc3)c2=O)cc1Br",
    "CLASSIFICATION": "F"
  },
  {
    "SMILES REPR": "CCS(=O)(=O)CCSc1nc(C)cc(C)c1C#N",
    "CLASSIFICATION": "F"
  },
  {
    "SMILES REPR": "CC(C)c1nnc(NC(=O)C2CCN(C(=O)Nc3ccc(Cl)cc3)CC2)s1",
    "CLASSIFICATION": "F"
  },
  {
    "SMILES REPR": "CCN(CC)c1ccc(/C=C2/C(=O)ON=C2C)cc1",
    "CLASSIFICATION": "T"
  },
  {
    "SMILES REPR": "O=[N+]([O-])c1ccc(-c2ccc(/C=N/Nc3nc(NCc4ccccc4)nc(N4CCOCC4)n3)o2)cc1",
    "CLASSIFICATION": "T"
  }
]

----------
# EXPERIMENTAL DETAILS: qHTS Assay for Lipid Storage Modulators in Drosophila S3 Cells;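 for cell number change: cells counted by Cell Tracker Red CMTPX staining in the red channel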
# CONDITION LABEL: BODIPY lipid droplet fluorescence, 18-24 h, cells fed with added oleic acid; measured here: cell count max response
Among all 320,000 compounds or so, about 2,100 (0.66%) were called active. Another 53% or so got no clear call; they are omitted. Many of the other results were omitted from the sample, so actives are more common in it than they were.

[
  {
    "MOLECULE": "CCOc1ccc(NC(=O)CCC(=O)NNC(=O)Nc2ccc(Cl)cc2)cc1",
    "cell number change [%]": 10.6
  },
  {
    "MOLECULE": "COc1ccc(CNC(=O)CN2C(=O)NC(C)(c3ccc(C(C)(C)C)cc3)C2=O)cc1 (configuration not stated)",
    "cell number change [%]": 5.69
  },
  {
    "MOLECULE": "CCCCNc1c(-c2cccc(SC3CCCCC3)c2)nc2ccc(Cl)cn12",
    "cell number change [%]": 5.29
  },
  {
    "MOLECULE": "CCCNC(=O)Cn1cnc2sc(C(=O)N3CCN(Cc4ccc5c(c4)OCO5)CC3)c(C)c2c1=O",
    "cell number change [%]": 8.92
  },
  {
    "MOLECULE": "CCCCNc1c(-c2ccc(-c3cccc(Cl)c3)cc2)nc2ccccn12",
    "cell number change [%]": 5.08
  },
  {
    "MOLECULE": "CC(C)(C)c1ccc(C2(C)NC(=O)N(CC(=O)NCc3cccs3)C2=O)cc1 (configuration not stated)",
    "cell number change [%]": 3.77
  },
  {
    "MOLECULE": "Cn1c(CC(=O)NCCO)c(Sc2ccccc2)c2ccccc21",
    "cell number change [%]": -10.3
  }
]

----------
// reported cell number change for each item listed
# EXPERIMENTAL DETAILS: qHTS Assay for Lipid Storage Modulators in Drosophila S3 Cells;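 for cell number change: cells counted by Cell Tracker Red CMTPX staining in the red channel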
# CONDITION LABEL: BODIPY lipid droplet fluorescence, 18-24 h, cells fed with added oleic acid; measured here: cell count max response
About 2,100 (0.66%) of roughly 320,000 compounds were called active. Another 53% or so got no clear call; they are omitted. Only a selection was taken, and actives are over-represented in it overall.
MEASURED QUANTITY: cell number change

[
  {
    "COMPOUND": "CCOc1ccccc1NC(=O)C1CCCN(S(=O)(=O)c2cccc3nsnc23)C1 (stereo not drawn)",
    "RECORDED VALUE": "-15.5%"
  },
  {
    "COMPOUND": "COCCCn1c(=N)c(C(=O)NCC2CCCO2)cc2c(=O)n3cccc(C)c3nc21 (stereo not drawn)",
    "RECORDED VALUE": "-13.4%"
  },
  {
    "COMPOUND": "COc1cc2c(cc1OC)C(C(=O)NCc1cccnc1)C(c1cccnc1)N(C)C2=O (stereo not drawn)",
    "RECORDED VALUE": "-0.81%"
  },
  {
    "COMPOUND": "CCCc1ccc(OCCNC(=O)C2CCCCC2)cc1",
    "RECORDED VALUE": "-6.51%"
  },
  {
    "COMPOUND": "CCCC(=O)NC(=S)Nc1ccc(C(C)=O)cc1",
    "RECORDED VALUE": "-4.91%"
  },
  {
    "COMPOUND": "CC(C)Oc1ccc(/C=C/C(=O)NCC2COc3ccccc3O2)cc1 (stereo not drawn)",
    "RECORDED VALUE": "-3.08%"
  },
  {
    "COMPOUND": "Cc1sc(NC(=O)/C=C/c2ccco2)c(C(=O)O)c1C",
    "RECORDED VALUE": "4.19%"
  },
  {
    "COMPOUND": "Cc1ccc(S(=O)(=O)N2CCN(C(=O)CSc3ncn[nH]3)CC2)cc1",
    "RECORDED VALUE": "5.31%"
  }
]

----------
// reported cell number change for each item listed
# EXPERIMENTAL DETAILS: qHTS Assay for Lipid Storage Modulators in Drosophila S3 Cells;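 for cell number change: cells counted by Cell Tracker Red CMTPX staining in the red channel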
# CONDITION LABEL: BODIPY lipid droplet fluorescence, 18-24 h, cells fed with added oleic acid; measured here: cell count max response
Out of some 320,000 compounds screened, about 2,100 (0.66%) were called active. Inconclusive results (about 53%) are left out. The entries come from a sample that favours actives as a whole.

[
  {
    "COMPOUND": "C=CCSc1nsc(NC(=O)Nc2ccc(F)cc2)n1",
    "UNIT OF MEASURE": "%",
    "cell number change": -16.2
  },
  {
    "COMPOUND": "CN(C)C(=S)Nc1cccc(F)c1",
    "UNIT OF MEASURE": "%",
    "cell number change": 0.661
  },
  {
    "COMPOUND": "CC1(C)CC(=O)C2=C(C1)N=C1SCCC(=O)N1C2c1ccccc1 (stereo not drawn)",
    "UNIT OF MEASURE": "%",
    "cell number change": 9.02
  },
  {
    "COMPOUND": "Cc1ccccc1NC(=O)CN1C(=O)N/C(=C\\c2ccc(N3CCOCC3)c(F)c2)C1=O",
    "UNIT OF MEASURE": "%",
    "cell number change": -7.47
  },
  {
    "COMPOUND": "COc1ccc(N2C(=O)C(CC(=O)Nc3ccccc3)N(CCc3ccc(OC)c(OC)c3)C2=O)cc1 (stereo not drawn)",
    "UNIT OF MEASURE": "%",
    "cell number change": 0.202
  },
  {
    "COMPOUND": "COc1ccc(CCNC(=O)CCCn2c(=O)c3cccn3c3cccnc32)c(OC)c1",
    "UNIT OF MEASURE": "%",
    "cell number change": -19.3
  },
  {
    "COMPOUND": "CSc1cccc(NC(=O)CCCn2c(=O)c3cccn3c3cccnc32)c1",
    "UNIT OF MEASURE": "%",
    "cell number change": -18.8
  },
  {
    "COMPOUND": "CCOC(=O)C1=C(C)OC(N)=C(C#N)C1c1cccc(C)c1 (stereo not drawn)",
    "UNIT OF MEASURE": "%",
    "cell number change": 26.4
  },
  {
    "COMPOUND": "CCC(C)(C)n1nnnc1C(c1ccc(N(C)C)cc1)N1CCN(C2CCCCC2)CC1 (stereo not drawn)",
    "UNIT OF MEASURE": "%",
    "cell number change": 1.78
  },
  {
    "COMPOUND": "O=C(CN1C(=O)NC2(CCc3ccccc32)C1=O)c1ccc(Br)cc1 (stereo not drawn)",
    "UNIT OF MEASURE": "%",
    "cell number change": -20.3
  },
  {
    "COMPOUND": "Cc1ccc(-c2nnc(SCC#N)n2N)cc1",
    "UNIT OF MEASURE": "%",
    "cell number change": 6.27
  },
  {
    "COMPOUND": "Cc1c(C)n(CCO)c2ncnc(Nc3ccc(F)cc3)c12",
    "UNIT OF MEASURE": "%",
    "cell number change": 17.8
  },
  {
    "COMPOUND": "O=C(N=C1N=C2C=CC=CN2Cc2ccccc21)c1ccc(S(=O)(=O)N2CCCC2)cc1",
    "UNIT OF MEASURE": "%",
    "cell number change": 13.8
  }
]
